- System Tested: peroxidase-anti-peroxidase (PAP) immune complex (preformed immune complex of peroxidase and anti-peroxidase IgG)
- Experiment Notes: reverse ELISA, competition: pre-incubated with PAP, then RF-coated plate (competitor: RF); lower = more inhibition
Positions of bridges follow the written chain, without caps; N, C: chain ends. No end group written: not given here.
Quantity Measured: OD 405 nm (OD)
Give a bare numeral; the unit OD is implied.

Some binders with recorded OD 405 nm:
{"columns": ["Binder", "Result Units", "Result Number"],
 "data": [
  ["PCARHLGELVWCT (disulfide 2-12 (inferred)) [… peptide (SEQ ID NO:41)]", "OD", 0.106],
  ["DCARHLGELVWCT (disulfide 2-12 (inferred)) [… peptide (SEQ ID NO:4)]", "OD", 0.109],
  ["RCARHLGELVWCT (disulfide 2-12 (inferred)) [… peptide (SEQ ID NO:5)]", "OD", 0.152]
]}

Entry DCAWHLGELAACT (cyclized by a disulfide bond between the two cysteine residues) [… peptide (SEQ ID NO:42)] , OD 405 nm reported as 0.622

Ref: patent US20070276125A1
